Data provenance: ChEMBL document CHEMBL1140354

tested on: Calf thymus DNA; assay: Apparent binding constant to calf thymus DNA (CT-DNA); assay type: nucleic-acid assay; settings: Bos taurus
Measured Parameter: Kb
The reply should be a number, written without any unit.

{"columns": ["Query Smiles", "Experimental System", "Kb"],
 "data": [
  ["Cc1c(N)nc([C@H](CC(N)=O)NC[C@H](N)C(N)=O)nc1C(=O)N[C@H](C(=O)N[C@H](C)[C@@H](O)[C@H](C)C(=O)N[C@H](C(=O)NCCc1nc(-c2nc(C(=O)NCCCNCCCCNC(=O)[C@H](N)CCCCN)cs2)cs1)[C@@H](C)O)[C@@H](O[C@@H]1O[C@@H](CO)[C@@H](O)[C@H](O)[C@@H]1O[C@H]1O[C@H](CO)[C@@H](O)[C@H](OC(N)=O)[C@@H]1O)c1c[nH]cn1", "Calf thymus DNA", 559000]
]}

stdin: // Kb lookup, key: Cc1c(N)nc([C@H](CC(N)=O)NC[C@H](N)C(N)=O)nc1C(=O)N[C@H](C(=O)N[C@H](C)[C@@H](O)[C@H](C)C(=O)N[C@H](C(=O)NCCc1nc(-c2nc(C(=O)NCCCNCCCCN)cs2)cs1)[C@@H](C)O)[C@@H](O[C@@H]1O[C@@H](CO)[C@@H](O)[C@@H](O)[C@@H]1O[C@H]1O[C@H](CO)[C@@H](O)[C@H](OC(N)=O)[C@@H]1O)c1c[nH]cn1
stdout: 457000

stdin: // Kb lookup, key: Cc1c(N)nc([C@H](CC(N)=O)NC[C@H](N)C(N)=O)nc1C(=O)N[C@H](C(=O)N[C@H](C)[C@@H](O)[C@H](C)C(=O)N[C@H](C(=O)NCCc1nc(-c2nc(C(=O)NCCCNCCCCNC(=O)[C@@H](N)C(C)C)cs2)cs1)[C@@H](C)O)[C@@H](O[C@@H]1O[C@@H](CO)[C@@H](O)[C@H](O)[C@@H]1O[C@H]1O[C@H](CO)[C@@H](O)[C@H](OC(N)=O)[C@@H]1O)c1c[nH]cn1
stdout: 325000

stdin: // Kb lookup, key: Cc1c(N)nc([C@H](CC(N)=O)NC[C@H](N)C(N)=O)nc1C(=O)N[C@H](C(=O)N[C@H](C)[C@@H](O)[C@H](C)C(=O)N[C@H](C(=O)NCCc1nc(-c2nc(C(=O)NCCCNCCCCNC(=O)[C@H](CCCCN)NC(=O)[C@@H](N)C(C)C)cs2)cs1)[C@@H](C)O)[C@@H](O[C@@H]1O[C@@H](CO)[C@@H](O)[C@H](O)[C@@H]1O[C@H]1O[C@H](CO)[C@@H](O)[C@H](OC(N)=O)[C@@H]1O)c1c[nH]cn1
stdout: 463000

stdin: // Kb lookup, key: Cc1c(N)nc([C@H](CC(N)=O)NC[C@H](N)C(N)=O)nc1C(=O)N[C@H](C(=O)N[C@H](C)[C@@H](O)[C@H](C)C(=O)N[C@H](C(=O)NCCc1nc(-c2nc(C(=O)NCCCNCCCCNC(=O)[C@H](CC(C)C)NC(=O)[C@H](N)C(C)C)cs2)cs1)[C@@H](C)O)[C@@H](O[C@@H]1O[C@@H](CO)[C@@H](O)[C@H](O)[C@@H]1O[C@H]1O[C@H](CO)[C@@H](O)[C@H](OC(N)=O)[C@@H]1O)c1c[nH]cn1
stdout: 260000
